Kindly state PBM binding z-score for each of the entries shown.
Tested on: PPARg DBDmut IVT, anti-PPARg (DBD mutation: PPARg1 K132A/R137A, NR concentration 270 nM)
assay.summary: PBM binding z-score (relative to random genomic background probes); higher = stronger binding; sequences stand for … in GC…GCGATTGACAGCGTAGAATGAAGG
Note: the reply should be a number with no unit written.

# input Consider the sequence CAAACTAGGTCACCGGAAGGTCAAAATCCGCATG and give its measured PBM binding z-score.
# output 5.58

# input Consider the sequence CTCGAAAGGTCGTGCACAGGTGAGTATACCAAAC and give its measured PBM binding z-score.
# output 0.411

# input Consider the sequence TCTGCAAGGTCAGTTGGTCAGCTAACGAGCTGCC and give its measured PBM binding z-score.
# output 1.09

# input Consider the sequence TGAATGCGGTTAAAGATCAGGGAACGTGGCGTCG and give its measured PBM binding z-score.
# output 0.69

# input Consider the sequence GCTAGTTGGTCACTAAAAGGTCACACACCGGTCG and give its measured PBM binding z-score.
# output -0.384

# input Consider the sequence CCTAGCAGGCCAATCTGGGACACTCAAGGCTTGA and give its measured PBM binding z-score.
# output -0.94

* * *

Test system: RARb homodimer (NR concentration 270 nM)
assay.summary: PBM binding z-score (relative to random genomic background probes); higher = stronger binding; sequences stand for … in GC…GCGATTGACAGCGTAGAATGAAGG
attribute.measured: PBM binding z-score

# input Consider the sequence CTCGAAAGATCGTGCTCAGGTGAGTATACCAAAC and give its measured PBM binding z-score.
# output -0.0864

# input Consider the sequence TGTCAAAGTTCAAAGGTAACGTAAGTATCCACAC and give its measured PBM binding z-score.
# output 3.82

# input Consider the sequence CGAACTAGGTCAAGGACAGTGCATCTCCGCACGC and give its measured PBM binding z-score.
# output 3.51

# input Consider the sequence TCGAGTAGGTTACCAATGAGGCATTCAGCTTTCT and give its measured PBM binding z-score.
# output -0.0486

# input Consider the sequence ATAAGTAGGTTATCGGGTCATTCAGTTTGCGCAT and give its measured PBM binding z-score.
# output 3.12

# input Consider the sequence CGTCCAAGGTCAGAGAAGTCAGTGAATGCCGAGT and give its measured PBM binding z-score.
# output 3.51

* * *

Tested on: RARb:RXRa (NR concentration 270 nM, RXRa partner concentration 90 nM)
assay.summary: PBM binding z-score (relative to random genomic background probes); higher = stronger binding; sequences stand for … in GC…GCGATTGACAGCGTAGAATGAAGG
Classify by measured PBM binding z-score: TRUE if it is equal to or exceeds 1, FALSE if it is smaller.

# input Given the entry CCGAGTGGGGCATAAGGTTACCATAAGCCAGCCC , answer whether its PBM binding z-score meets or surpasses 1.
# output TRUE

# input Given the entry CTCGAACGGTCGGTTGAGGTGAGTATACGGATAA , answer whether its PBM binding z-score meets or surpasses 1.
# output FALSE

# input Given the entry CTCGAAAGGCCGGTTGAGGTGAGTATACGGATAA , answer whether its PBM binding z-score meets or surpasses 1.
# output FALSE

# input Given the entry GATACAGGGTCGAGGCCAGAGTACGCGTATTGAT , answer whether its PBM binding z-score meets or surpasses 1.
# output TRUE

# input Given the entry CCTACTGGGGCATTCAGAGGTCATTGATCATATG , answer whether its PBM binding z-score meets or surpasses 1.
# output TRUE

# input Given the entry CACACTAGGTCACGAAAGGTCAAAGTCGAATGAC , answer whether its PBM binding z-score meets or surpasses 1.
# output TRUE

# input Given the entry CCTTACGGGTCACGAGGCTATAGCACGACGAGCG , answer whether its PBM binding z-score meets or surpasses 1.
# output TRUE

# input Given the entry ATCGAAAGGTCGAAGGTGAATATACCCACCCGAA , answer whether its PBM binding z-score meets or surpasses 1.
# output TRUE

# input Given the entry GCTAGCAGGCCACTTGGGTCACTCAATGACGGGC , answer whether its PBM binding z-score meets or surpasses 1.
# output TRUE

# input Given the entry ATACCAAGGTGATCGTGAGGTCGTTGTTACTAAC , answer whether its PBM binding z-score meets or surpasses 1.
# output TRUE

# input Given the entry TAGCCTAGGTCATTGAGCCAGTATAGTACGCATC , answer whether its PBM binding z-score meets or surpasses 1.
# output TRUE

# input Given the entry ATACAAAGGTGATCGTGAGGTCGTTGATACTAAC , answer whether its PBM binding z-score meets or surpasses 1.
# output TRUE

* * *

Test system: FXR:RXRa (NR concentration 270 nM, RXRa partner concentration 90 nM)
assay.summary: PBM binding z-score (relative to random genomic background probes); higher = stronger binding; sequences stand for … in GC…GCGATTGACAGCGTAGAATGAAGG
attribute.measured: PBM binding z-score
Note: the reply should be a number with no unit written.

# input Consider the sequence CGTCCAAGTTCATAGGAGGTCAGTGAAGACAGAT and give its measured PBM binding z-score.
# output 5.25

# input Consider the sequence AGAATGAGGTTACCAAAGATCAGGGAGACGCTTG and give its measured PBM binding z-score.
# output 2.11

# input Consider the sequence AGAATGAGGTTACCAAAGATCAGGGATACGCTTG and give its measured PBM binding z-score.
# output 1.93

# input Consider the sequence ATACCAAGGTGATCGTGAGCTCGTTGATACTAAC and give its measured PBM binding z-score.
# output 0.125

# input Consider the sequence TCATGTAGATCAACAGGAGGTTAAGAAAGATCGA and give its measured PBM binding z-score.
# output 0.191

# input Consider the sequence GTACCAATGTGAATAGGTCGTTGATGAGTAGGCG and give its measured PBM binding z-score.
# output -0.0565

# input Consider the sequence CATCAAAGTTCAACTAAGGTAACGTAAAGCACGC and give its measured PBM binding z-score.
# output 7.36

# input Consider the sequence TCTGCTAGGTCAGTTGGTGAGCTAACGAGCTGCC and give its measured PBM binding z-score.
# output 0.898

* * *

System: RXRa homodimer (NR concentration 180 nM)
assay.summary: PBM binding z-score (relative to random genomic background probes); higher = stronger binding; sequences stand for … in GC…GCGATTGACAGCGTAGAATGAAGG
attribute.measured: PBM binding z-score
Note: the reply should be a number with no unit written.

# input Consider the sequence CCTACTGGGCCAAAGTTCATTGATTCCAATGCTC and give its measured PBM binding z-score.
# output 2.73

# input Consider the sequence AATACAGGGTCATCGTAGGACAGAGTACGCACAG and give its measured PBM binding z-score.
# output 6.61

# input Consider the sequence CCTAGTTGGTGAAGGTCACACACGCTATAGGTAC and give its measured PBM binding z-score.
# output 3.65

# input Consider the sequence ATCTCTAGGTAAAGTTCAGTGAAAGATCGATAGA and give its measured PBM binding z-score.
# output 1.42

# input Consider the sequence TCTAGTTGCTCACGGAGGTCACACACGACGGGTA and give its measured PBM binding z-score.
# output 4.32

# input Consider the sequence TCTTGTAGATCAAAGGTTAAGTAAGCCGAAGCCT and give its measured PBM binding z-score.
# output 3.27

# input Consider the sequence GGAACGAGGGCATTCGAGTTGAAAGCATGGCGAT and give its measured PBM binding z-score.
# output 1.12

# input Consider the sequence CGTCCAAGGTCAAAGGGCAGTGAAGAGATGACGG and give its measured PBM binding z-score.
# output 7.24

# input Consider the sequence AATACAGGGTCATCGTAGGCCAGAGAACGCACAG and give its measured PBM binding z-score.
# output 6.83

# input Consider the sequence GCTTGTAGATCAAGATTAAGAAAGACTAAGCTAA and give its measured PBM binding z-score.
# output -0.324

# input Consider the sequence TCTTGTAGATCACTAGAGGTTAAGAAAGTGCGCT and give its measured PBM binding z-score.
# output 1.6

# input Consider the sequence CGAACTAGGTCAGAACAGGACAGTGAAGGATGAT and give its measured PBM binding z-score.
# output 1.23

* * *

Tested on: PXR homodimer (NR concentration 270 nM)
assay.summary: PBM binding z-score (relative to random genomic background probes); higher = stronger binding; sequences stand for … in GC…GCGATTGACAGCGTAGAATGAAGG
attribute.measured: PBM binding z-score
Note: the reply should be a number with no unit written.

# input Consider the sequence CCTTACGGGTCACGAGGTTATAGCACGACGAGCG and give its measured PBM binding z-score.
# output 0.418

# input Consider the sequence TCATATAGGTAGATGCTAGGTGAAAGTCCGATCT and give its measured PBM binding z-score.
# output 0.366

# input Consider the sequence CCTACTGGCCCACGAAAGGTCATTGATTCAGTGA and give its measured PBM binding z-score.
# output 1.92

# input Consider the sequence TCGTGTAGATCAATAGAGGTTAAGAAAGTGCGCT and give its measured PBM binding z-score.
# output 0.386

# input Consider the sequence TCTTGTAGATCAATAGAGGTTAAGAATGTGCGCT and give its measured PBM binding z-score.
# output 0.282

# input Consider the sequence GCAGACAAGTGAAACGCAGGTAACTCAGGGTGGC and give its measured PBM binding z-score.
# output -0.723
